Target: T1, mouse melanocortin-3 receptor (mouse, UniProt P33033 1-323)
T1 construct: whole, on cells; also called mMC3R; MC3R
T1 sequence (P33033 whole entry): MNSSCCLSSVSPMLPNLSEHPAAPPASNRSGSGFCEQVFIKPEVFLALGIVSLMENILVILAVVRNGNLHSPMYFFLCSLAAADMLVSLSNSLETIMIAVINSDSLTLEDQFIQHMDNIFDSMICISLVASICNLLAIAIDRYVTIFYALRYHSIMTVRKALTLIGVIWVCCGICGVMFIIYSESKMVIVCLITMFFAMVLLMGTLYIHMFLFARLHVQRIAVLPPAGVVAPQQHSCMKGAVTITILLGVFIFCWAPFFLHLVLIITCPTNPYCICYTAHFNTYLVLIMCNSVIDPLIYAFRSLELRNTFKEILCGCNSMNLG
Assay: 125I-NDP-MSH competitive displacement, HEK293 cells stably expressing mMC3R; negative = more potent than control
Square brackets hold non-standard residues; d marks the D form. dPhe(4-I) = N[C@H](Cc1ccc(I)cc1)C(=O)O; Bta = N[C@@H](Cc1csc2ccccc12)C(=O)O
// reported Fold Diff. (IC50 against SKY4-48-1) for each item listed
Express your answer as a number followed by its unit.

Known Fold Diff. (IC50 against SKY4-48-1) results, listed for orientation:
Ac-HR[dPhe(4-I)][Bta]-NH2 [SKY4-48-11, Ac-His-Arg-(pI)DPhe-3Bal-NH2]
-15 fold
Ac-RR[dPhe(4-I)]F-NH2 (SMILES CC(=O)N[C@@H](CCCNC(=N)N)C(=O)N[C@@H](CCCNC(=N)N)C(=O)N[C@H](Cc1ccc(I)cc1)C(=O)N[C@@H](Cc1ccccc1)C(N)=O) [SKY4-48-26, Ac-Arg-Arg-(pI)DPhe-Phe-NH2]
-8 fold
Ac-RR[dPhe(4-I)][Bta]-NH2 [SKY4-48-10, Ac-Arg-Arg-(pI)DPhe-3Bal-NH2]
-52 fold

Next up:
# Fold Diff. (IC50 against SKY4-48-1) lookup, item Ac-FR[dPhe(4-I)][Bta]-NH2 [SKY4-48-15, Ac-Phe-Arg-(pI)DPhe-3Bal-NH2]
-9 fold

Origin of values: patent US20170342107A1
